Study the reported Ki values for UniProt:P29466 given below; they originate from different publications.

Recorded results for 10 compounds are shown here.
>  <Compound>
O=C[C@H](CC(=O)O)NC(=O)[C@@H]1CCCN1C(=O)[C@H](CC(F)(F)F)NC(=O)c1ccccc1Cl

>  <Ki>
< 10 nM

$$$$
>  <Compound>
Cc1ccc(Oc2ccccc2)c(S(=O)(=O)NC(C=O)CC(=O)O)c1 (centres unmarked)

>  <Ki>
2200 nM

$$$$
>  <Compound>
CC(C)[C@H](NC(=O)c1ccnc(Cl)c1Cl)C(=O)N1CCC[C@H]1C(=O)N[C@H](C=O)CC(=O)O

>  <Ki>
< 10 nM

$$$$
>  <Compound>
CCc1cccc(C(=O)N[C@H](C(=O)N2CCC[C@H]2C(=O)N[C@H](C=O)CC(=O)O)C(C)(C)C)c1Cl

>  <Ki>
< 10 nM

$$$$
>  <Compound>
O=CC(CC(=O)O)NS(=O)(=O)c1ccccc1Oc1ccc2c(c1)CCCC2 (centres unmarked)

>  <Ki>
1300 nM

$$$$
>  <Compound>
O=CC(CC(=O)O)NS(=O)(=O)c1ccccc1OCC1CCCO1 (centres unmarked)

>  <Ki>
7700 nM

$$$$
>  <Compound>
CS(=O)(=O)NCC(=O)C(CC(=O)O)NC(=O)OCc1ccccc1 (centres unmarked)

>  <Ki>
735000 nM

$$$$
>  <Compound>
O=C[C@H](CC(=O)O)NC(=O)[C@@H](CC(=O)N1CCOCC1)CC1CCCC1

>  <Ki>
> 10000 nM

$$$$
>  <Compound>
CC(=O)Nc1cccc(C(=O)N[C@H](C(=O)N2CCC[C@H]2C(=O)N[C@H](C=O)CC(=O)O)C(C)(C)C)c1C

>  <Ki>
< 10 nM

$$$$
>  <Compound>
O=C[C@H](CC(=O)O)NC(=O)[C@@H]1CCCN1C(=O)[C@H](Cc1cscn1)NC(=O)c1ccccc1Cl

>  <Ki>
< 10 nM

$$$$

Entry "CC(C)[C@H](NC(=O)c1cc(Cl)ccc1Cl)C(=O)N1CCC[C@H]1C(=O)N[C@H](C=O)CC(=O)O" , system UniProt:P29466: what Ki was measured?
< 10 nM

Entry "COc1cccc(C(=O)N[C@H](C(=O)N2CCC[C@H]2C(=O)N[C@H](C=O)CC(=O)O)C(C)(C)C)c1C" , system UniProt:P29466: what Ki was measured?
< 10 nM
